# TEST SYSTEM: human TRPV4 (Homo sapiens, UniProt Q9HBA0)
# Construct: host or cells: tetracycline-inducible Flp-In T-REx 293 cells
# Sequence (Q9HBA0 whole entry): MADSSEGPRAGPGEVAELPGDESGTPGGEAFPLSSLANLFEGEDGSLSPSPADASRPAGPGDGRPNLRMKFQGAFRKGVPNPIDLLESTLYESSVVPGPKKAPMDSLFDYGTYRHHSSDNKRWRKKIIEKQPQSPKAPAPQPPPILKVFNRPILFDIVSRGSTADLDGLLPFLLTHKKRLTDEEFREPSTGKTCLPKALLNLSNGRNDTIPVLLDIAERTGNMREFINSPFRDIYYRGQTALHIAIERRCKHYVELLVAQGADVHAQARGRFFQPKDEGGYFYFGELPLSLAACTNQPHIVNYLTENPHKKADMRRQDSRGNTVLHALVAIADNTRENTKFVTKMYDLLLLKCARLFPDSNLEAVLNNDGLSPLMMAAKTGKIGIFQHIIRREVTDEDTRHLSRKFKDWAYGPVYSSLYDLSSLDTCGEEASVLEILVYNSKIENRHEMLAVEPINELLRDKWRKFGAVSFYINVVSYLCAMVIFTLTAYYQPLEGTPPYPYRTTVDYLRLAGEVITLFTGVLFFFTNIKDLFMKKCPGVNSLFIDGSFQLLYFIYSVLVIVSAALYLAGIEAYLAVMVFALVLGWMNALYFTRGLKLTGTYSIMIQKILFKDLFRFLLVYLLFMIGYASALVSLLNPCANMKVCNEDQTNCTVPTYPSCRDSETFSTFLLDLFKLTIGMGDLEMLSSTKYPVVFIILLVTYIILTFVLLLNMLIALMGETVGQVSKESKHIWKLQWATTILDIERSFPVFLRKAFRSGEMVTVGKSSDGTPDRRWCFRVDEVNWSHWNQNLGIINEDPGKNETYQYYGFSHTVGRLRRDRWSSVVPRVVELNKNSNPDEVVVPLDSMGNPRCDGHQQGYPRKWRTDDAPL
# METHOD: Hypotonicity-induced Ca2+ influx (Fluo-4, FDSS)
# Format: cell-based
# CONDITION DETAILS: Flp-In T-REx 293 cells stably expressing human TRPV4, compounds listed by potency bin (<10 nM Tables 96-1/96-2, <3 nM Table 97)
pIC50: −log10 of the molar value.
MEASURED ATTRIBUTE: pIC50

Record excerpt, results attached:
N#Cc1cccc(-c2cccc(C3(c4nc5c(c(=O)[nH]4)CN(C(=O)[C@H](O)c4cccc(C(F)(F)F)c4)CCC5)CC3)c2)c1 [42-5]: > 8.52
CC(C)c1cccc(C2(c3nc4c(c(=O)[nH]3)CN(C(=O)[C@H](O)c3cccc(C(F)(F)F)c3)CCC4)CC2)c1 [31-8]: > 8.52
O=C([C@H](O)c1cccc(-c2cc3ccccc3o2)c1)N1CCc2nc(C3(c4ccccc4)CC3)[nH]c(=O)c2C1 [44-84]: > 8.52
O=C([C@H](O)c1cccc(-c2cccc(F)c2)c1)N1CCCc2nc(C3(c4ccccc4)CC3)[nH]c(=O)c2C1 [49-12]: > 8.00
O=C(Cc1cccc(S(F)(F)(F)(F)F)c1)N1CCCc2nc(C3(c4ccccc4)CC3)[nH]c(=O)c2C1 [17-31]: > 8.00
O=C(N1CCCc2nc(C3(c4cncc(-c5ccccc5)c4)CC3)[nH]c(=O)c2C1)C(F)(F)c1cccc(C(F)(F)F)c1 [22-4]: > 8.52
O=C([C@H](O)c1cccc(-c2cccc(C3CC3)c2)c1)N1CCCc2nc(C3(c4cccs4)CC3)[nH]c(=O)c2C1 [53-6]: > 8.52
O=C([C@H](O)c1cccc(-c2cnc3ccccc3c2)c1)N1CCc2nc(C3(c4ccccc4)CC3)[nH]c(=O)c2C1 [44-81]: > 8.52

Ask: Need pIC50 of O=C(N1CCCc2nc(C3(c4cncc(-c5ccccc5)c4)CC3)[nH]c(=O)c2C1)C(F)(F)c1cccc(Cl)c1 [22-2] , thanks.
Result: > 8.52

Ask: Need pIC50 of O=C(N1CCc2nc(C3(c4cncc(-c5ccccc5)c4)CC3)[nH]c(=O)c2C1)C(F)(F)c1cccc(Cl)c1 [22-5] , thanks.
Result: > 8.00

Ask: Need pIC50 of O=C([C@H](O)c1cccc(C(F)(F)F)c1)N1CCc2nc(C3(c4cncc(C5CCC(F)(F)CC5)c4)CC3)[nH]c(=O)c2C1 [28-4] , thanks.
Result: > 8.00

Ask: Need pIC50 of O=C(C(O)c1cccc(-c2cnc3ccccc3c2)c1)N1CCCc2nc(C3(c4cccc(Cl)c4)CC3)[nH]c(=O)c2C1 (stereo not drawn) [17-19] , thanks.
Result: > 8.00

Ask: Need pIC50 of O=C([C@H](O)c1cccc(C(F)(F)F)c1)N1CCc2nc(C3(c4cccc(-c5cnsc5)c4)CC3)[nH]c(=O)c2C1 [37-3] , thanks.
Result: > 8.52

Ask: Need pIC50 of O=C([C@H](O)c1cccc(C(F)(F)F)c1)N1CCCc2nc(C3(c4cccc(-c5csc6ccccc56)c4)CC3)[nH]c(=O)c2C1 [42-28] , thanks.
Result: > 8.00

Ask: Need pIC50 of O=C([C@H](O)c1cccc(C(F)(F)F)c1)N1CCCc2nc(C3(c4cccc(C5=CCN(S(=O)(=O)c6ccc(F)cc6)CC5)c4)CC3)[nH]c(=O)c2C1 [42-75] , thanks.
Result: > 8.00
